B1: HDV Ribozyme (parent)
chain: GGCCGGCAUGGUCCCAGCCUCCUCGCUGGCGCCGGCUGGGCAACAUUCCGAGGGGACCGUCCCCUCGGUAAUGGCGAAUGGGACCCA

variants of: B1; test: self-cleavage, relative activity (ratio to wild type); higher = more cleavage; co-transcriptional
metric_name: self-cleavage

> print(dat)
                             record.sequence  recorded.result
 1  GGCCGGGAUGGUCCCAGCCUCCUCGCUGGCGCCGGCUGGGCAACAUUCCGAGGCGACCGUCCCCUCGGUAAUGGCGAAUGGGACCCA [C7G G54C]            0.415
 2  GGCCGGCAUGGUCCCAGCCUCCUCGCUGGCGCCGGCUGGUCAACAUUACGAGGGGACCGUCCCCUCGGUAAUGGCGAAUGGGACCCA [G40U C48A]             0.76
 3  GGCCGGCAUGGUCACAGCCUCCUCGCUGGCGCCGGCUGUGCAACAUUCCGAGGGGACCGUCCCCUCGGUAAUGGCGAAUGGGACCCA [C14A G39U]            0.222
 4  GGCCUGCAUGGUCCCAGCCUCCUCGCUGGCGCCGGCUGGGCAACACUCCGAGGGGACCGUCCCCUCGGUAAUGGCGAAUGGGACCCA [G5U U46C]                0
 5  GGCCGGCAUGGUCCCAGCCUCCUCGCUGACGCCGGCUGGGCAACAUUCCGAGGGGACCGUCCCCUCGGUAAUGGCGAAUGGGGCCCA [G29A A83G]           0.0611
 6  GGCCGGCACGGUCCCAGCCUCCUCCCUGGCGCCGGCUGGGCAACAUUCCGAGGGGACCGUCCCCUCGGUAAUGGCGAAUGGGACCCA [U9C G25C]           0.0615
 7  GGCCGGCAUGAUCCCAGCCUCCUCGCUGGCGCCGGCUGGGCAACAUUCCGAGGGGACCGUACCCUCGGUAAUGGCGAAUGGGACCCA [G11A C61A]            0.379
 8  GUCCGGCAUGGUCCCAGCCUCCUCGCUGGCGCCGGCUGGGCAACAUUCCGAGGGGACCGUCCCCUCGGUAAUGGCGAAUGGGACUCA [G2U C85U]                0
 9  GGCCGGCAUGGUCCAAGCCUCCUCCCUGGCGCCGGCUGGGCAACAUUCCGAGGGGACCGUCCCCUCGGUAAUGGCGAAUGGGACCCA [C15A G25C]           0.0692
10  GGCCGGCAUGGUCCCAGCCUCAUCGCUGGCGCCGGCUGGGCAACAUUCCGAGGGGACCGUCACCUCGGUAAUGGCGAAUGGGACCCA [C22A C62A]            0.339
11  GGCCGGCAUGGUCCCAGCAUCCUCCCUGGCGCCGGCUGGGCAACAUUCCGAGGGGACCGUCCCCUCGGUAAUGGCGAAUGGGACCCA [C19A G25C]           0.0386
12  GGCCGGCAUGGUCCCAGCCUCCUCGCUGGCGCCGACUGGGCAACAUUCCGAGGGGACCGUCCCAUCGGUAAUGGCGAAUGGGACCCA [G35A C64A]            0.379
13  GGCCGGCAUGGUCCCAGCCUCCUCGCUGGCGCCGGCUGGGCAACAUUCCGAGGGGACCGUCCCCUCGGUAAUGGCGAGUGGUACCCA [A78G G82U]            0.295
14  GGCCGGCAUGGUCCCAGCCUCCUCGCUGGCGCCGGCUGCGCAACAUUCCGAGGGGACCGUCCCCACGGUAAUGGCGAAUGGGACCCA [G39C U65A]           0.0462
15  GGCCGGCAUGGUCCCAGCCGCCUCCCUGGCGCCGGCUGGGCAACAUUCCGAGGGGACCGUCCCCUCGGUAAUGGCGAAUGGGACCCA [U20G G25C]                0
16  GGCCGGCAUGGUCCCAGCCUCCUCGCUGGCGCCGGCUGGGCAACAUUCCAAGGGGACCGCCCCCUCGGUAAUGGCGAAUGGGACCCA [G50A U60C]            0.945
17  GGCCGGCAUGGUCCCAGCCUCCUCGCUGGCACCGGCUGGGCAACAUUCCGAGGGGACCGUCCCCUCCGUAAUGGCGAAUGGGACCCA [G31A G67C]            0.513
18  GGCCGGCAUGGUCCCAGCCUCCUCGCUAGCGCCGGCUUGGCAACAUUCCGAGGGGACCGUCCCCUCGGUAAUGGCGAAUGGGACCCA [G28A G38U]           0.0496
19  GGCCGGCAUGGUCCCAGCCUCCUCGCUGGCGCCGGCUGGGCAACAUUUCGAGGGGACCGUCUCCUCGGUAAUGGCGAAUGGGACCCA [C48U C62U]             1.15
20  GGCCGGCAUGGUCCCAGCCUGCUCGCUGGCGCCGGCUGGGCAACAUUCCGAGGGGACCGUCCCCUCGGUAAUGCCGAAUGGGACCCA [C21G G74C]            0.104
21  GGCCGGCAUGGUCCCAGCCUCCUCGCUGGCGCCGGCCGGGCAACAUUCCGAGGGGACCGUCCCCUCGGUGAUGGCGAAUGGGACCCA [U37C A70G]             1.23
22  GGCCGGCAUGGUCCCAGCCUCCUGGCUGGCGCCGGCUGGGCAUCAUUCCGAGGGGACCGUCCCCUCGGUAAUGGCGAAUGGGACCCA [C24G A43U]           0.0237
23  GGCCGGCAUGGUUCCAGCCUCCUCGCUGGCGCCGGCUGGGCAACAUUCCGAGGGGACCGUCCCCUCGGUUAUGGCGAAUGGGACCCA [C13U A70U]            0.342
24  GGCCGGCAUGGUCCCAGCCUCCUCGCUGGCGCCGGCUGGGCAACAUUCCGAGGGGACCGUCCCCUCGGCAAUCGCGAAUGGGACCCA [U69C G73C]            0.633
25  GGCCGGCAUGGUCCCAGCCUCCUCGCUGGCGCCGGCUGGGCAACAUUCCGGGCGGACCGUCCCCUCGGUAAUGGCGAAUGGGACCCA [A51G G53C]            0.665
26  GGCCGGCAUGGUCCCAGCCUCCUCGCUGGCGCCGGCUGGGCAACAUUCCGAGGGGACCGUCCCCUCGGUAAUGGCGAAUUGGACCCA [G80U]            0.223
27  GGCCGACAUGGUCCCAGCCUCCUCGCUGGCGCCGGCUGGGCAACAUUCCGAGGGGACCGUCUCCUCGGUAAUGGCGAAUGGGACCCA [G6A C62U]            0.728
28  GGCCGGCAUGGCCCCAGCCUCCUCGCUGGCGCCGGCUGGGCAACAUUCCGAGGUGACCGUCCCCUCGGUAAUGGCGAAUGGGACCCA [U12C G54U]            0.415
29  GGCCGGCAUGGUCCCAGCCUCCUCGCUGGCGCCGGAUGGGCAACAUUCCGAGGGGACCGUCCCCUCGGUAAUGGCGAAUGGGACACA [C36A C85A]            0.457
30  GGCCGGCAUGGUCCCAGCCUCCUCGCUGGCCCCGGCUGGGCAACAUUCCGAGGUGACCGUCCCCUCGGUAAUGGCGAAUGGGACCCA [G31C G54U]            0.332
31  GGCCGGCAUGGUCCCAGCCUCCUCCCUGGCGCCGGCUGGGCAACAUUCCGAGGGGACCGUCCCCUCGGUUAUGGCGAAUGGGACCCA [G25C A70U]           0.0898
32  GGCCGGCAUGGUCCCAGCCUCCUCGCUGGCGCCGGGUGGGCAACAUUCCGAGGGGACCGUCCCCUCGGUAAUGGCGAAAGGGACCCA [C36G U79A]            0.095
33  AGCCGGCAUGGUCCCAGCCUCCCCGCUGGCGCCGGCUGGGCAACAUUCCGAGGGGACCGUCCCCUCGGUAAUGGCGAAUGGGACCCA [G1A U23C]                0
34  GGCCGGCAUGGUCGCAGCCUCCUCGCUGGCGCCGGCUGGGCAACAUUCCGAGGGGACCGUCCCCUCGGUAAUGGCGAAUGGAACCCA [C14G G82A]            0.158
35  GGCCGGCAUGGUCCCAGCCUUCUCGCUUGCGCCGGCUGGGCAACAUUCCGAGGGGACCGUCCCCUCGGUAAUGGCGAAUGGGACCCA [C21U G28U]                0
36  GGCCGGCAUGGUCCCAGCCUCCUCGCUGGCGCCGUCUGGGCAACAUUCCGAGGGGACCGUCCCCUCGGUAAUGGGGAAUGGGACCCA [G35U C75G]           0.0378
37  GGCCGGCAUGGUCCCAGCCUCCUCACUGGCGCCGGCUGGGCAACAUUCCGUGGGGACCGUCCCCUCGGUAAUGGCGAAUGGGACCCA [G25A A51U]            0.318
38  GGCCGGCAUGGUCCCAGGCUCCUCGCUGGCGCCGGCUGGGCAACAUUCCGAGGGGACCGUCCCCUCUGUAAUGGCGAAUGGGACCCA [C18G G67U]            0.101
39  GGCCGGCAUGGUCACAGCCUCCUCGCUGGCGCCGGCUGGGCAAGAUUCCGAGGGGACCGUCCCCUCGGUAAUGGCGAAUGGGACCCA [C14A C44G]            0.346
40  GGCCGGCAUGGUCCCAGCCUCCUCGCUGGCGCCGGCUGGGCAACAUUACGAGGGGACCGUCCCCUCUGUAAUGGCGAAUGGGACCCA [C48A G67U]             1.03
41  GGCCGGCAUGGUCCCAGCCUCCUCGCUGGCGCCGGCUGGGCAACAUUGCGAGGGGACCGUCCCCUCGGUAAUGGCGAAUGGGACCUA [C48G C86U]            0.932
42  GACCGGCAUGGUCCCAGCCUCCUCGCUGGCGCCGGCUGGGCAACAUUCGGAGGGGACCGUCCCCUCGGUAAUGGCGAAUGGGACCCA [G2A C49G]            0.135
43  GGCCUGCAUGGUCCCAGCCUCCUCGCUGGCGCCGGCUGGGCAACAUUCCGAGGGGACCGUCUCCUCGGUAAUGGCGAAUGGGACCCA [G5U C62U]            0.467
44  GGCCGGCAUGGUCCCAGCCUACUAGCUGGCGCCGGCUGGGCAACAUUCCGAGGGGACCGUCCCCUCGGUAAUGGCGAAUGGGACCCA [C21A C24A]                0
45  GGGCGGCAGGGUCCCAGCCUCCUCGCUGGCGCCGGCUGGGCAACAUUCCGAGGGGACCGUCCCCUCGGUAAUGGCGAAUGGGACCCA [C3G U9G]            0.789
46  GGCCGGCAUGGUCCCCGCCUCCUCGCUGGCGCCGGCUGGGCAACAUUCCGAGGGGACCGUCCCCUCGGUAAUGGCGAAUGGGUCCCA [A16C A83U]            0.633
